- target: HLA-A*24:02
- assay.details: IEDB peptide-MHC binding, purified MHC/direct/fluorescence; filed as Kd, often an IC50 or EC50 that approximates it; bounds were set here for any values at or beyond the usual limits of such assays
- condition.notes: source organism: Vibrio parahaemolyticus
result.type: Kd

Using the record for `ASEELMDKY` , report its Kd.
≥ 20 µM

* * *

- target: HLA-A*03:01
- assay.details: IEDB peptide-MHC binding, purified MHC/competitive/fluorescence; filed as Kd, often an IC50 or EC50 that approximates it; bounds were set here for any values at or beyond the usual limits of such assays
- condition.notes: source organism: Salmonella enterica subsp. enterica serovar Typhi
pKd: −log10 of the molar value.
result.type: pKd

Using the record for `SVIDHIHYM` , report its pKd.
≤ 4.70

* * *

- target: HLA-A*26:01
- assay.details: IEDB peptide-MHC binding, purified MHC/competitive/fluorescence; filed as Kd, often an IC50 or EC50 that approximates it; bounds were set here for any values at or beyond the usual limits of such assays
- condition.notes: source organism: Homo sapiens
pKd: −log10 of the molar value.
result.type: pKd

LTDSSTLLV = ≤ 4.70

// next entry
Using the record for `FMDPGIFPR` , report its pKd.
≤ 4.70

* * *

- target: HLA-B*15:42
- assay.details: IEDB peptide-MHC binding, purified MHC/competitive/fluorescence; filed as Kd, often an IC50 or EC50 that approximates it; bounds were set here for any values at or beyond the usual limits of such assays
- condition.notes: source organism: Salmonella enterica subsp. enterica serovar Typhi
result.type: Kd

Using the record for `SVIDHIHYM` , report its Kd.
≥ 5 µM

* * *

- target: HLA-B*39:01
- assay.details: IEDB peptide-MHC binding, purified MHC/competitive/fluorescence; filed as Kd, often an IC50 or EC50 that approximates it; bounds were set here for any values at or beyond the usual limits of such assays
- condition.notes: source organism: Giardia intestinalis ATCC 50581
pKd: −log10 of the molar value.
result.type: pKd

Using the record for `GLYLYRFHV` , report its pKd.
≤ 4.70

* * *

- target: HLA-A*02:01
- assay.details: IEDB peptide-MHC binding, purified MHC/competitive/fluorescence; filed as Kd, often an IC50 or EC50 that approximates it; bounds were set here for any values at or beyond the usual limits of such assays
- condition.notes: source organism: Cryptosporidium parvum Iowa II
pKd: −log10 of the molar value.
result.type: pKd

Using the record for `LTAPCDIYV` , report its pKd.
≤ 4.70

* * *

- target: HLA-B*08:03
- assay.details: IEDB peptide-MHC binding, purified MHC/direct/fluorescence; filed as Kd, often an IC50 or EC50 that approximates it; bounds were set here for any values at or beyond the usual limits of such assays
- condition.notes: source organism: Campylobacter jejuni
pKd: −log10 of the molar value.
result.type: pKd

Using the record for `VSIRGSHHK` , report its pKd.
≤ 4.70

* * *

- target: HLA-B*27:05
- assay.details: IEDB peptide-MHC binding, purified MHC/direct/fluorescence; filed as Kd, often an IC50 or EC50 that approximates it; bounds were set here for any values at or beyond the usual limits of such assays
- condition.notes: source organism: Corynebacterium glutamicum
result.type: Kd

// lookup Kd | system=HLA-B*27:05 | key= `VHDREGNEV`
≥ 20 µM

* * *

- target: HLA-B*35:01
- assay.details: IEDB peptide-MHC binding, purified MHC/competitive/fluorescence; bounds were set here for any values at or beyond the usual limits of such assays
- condition.notes: source organism: Monodelphis domestica
result.type: IC50

Using the record for `YSLEYFQFVKK` , report its IC50.
≥ 20 µM

* * *

Below: a set of entries, each annotated with reported pKd.
- target: HLA-B*51:01
- assay.details: IEDB peptide-MHC binding, purified MHC/competitive/radioactivity; filed as Kd, often an IC50 or EC50 that approximates it; bounds were set here for any values at or beyond the usual limits of such assays
- condition.notes: source organism: Dengue virus 1 Brazil/97-11/1997
pKd: −log10 of the molar value.

Recorded results for 2 sequences are shown here.
MPVTVASAAQ = ≤ 4.16
LPQHLTLRAQ = ≤ 4.50

// next entry
Using the record for `FKPGTSGSPI` , report its pKd.
5.24

* * *

- target: HLA-B*73:01
- assay.details: IEDB peptide-MHC binding, purified MHC/competitive/fluorescence; filed as Kd, often an IC50 or EC50 that approximates it; bounds were set here for any values at or beyond the usual limits of such assays
- condition.notes: source organism: Brucella abortus S19
result.type: Kd
Provide a numeric answer, followed by its unit.

Using the record for `YRGGGQQHV` , report its Kd.
3000 nM

* * *

- target: HLA-B*15:01
- assay.details: IEDB peptide-MHC binding, purified MHC/direct/fluorescence; filed as Kd, often an IC50 or EC50 that approximates it; bounds were set here for any values at or beyond the usual limits of such assays
- condition.notes: source organism: Coxiella burnetii Q321
result.type: pKd
The quantity pKd is defined as the negative base-10 logarithm of the molar concentration.

Using the record for `DGAEGINPY` , report its pKd.
4.96

* * *

- target: HLA-A*32:01
- assay.details: IEDB peptide-MHC binding, purified MHC/competitive/radioactivity; filed as Kd, often an IC50 or EC50 that approximates it; bounds were set here for any values at or beyond the usual limits of such assays
- condition.notes: source organism: Dengue virus 3 Martinique/1243/1999
Below: a set of entries, each annotated with reported pKd.
The quantity pKd is defined as the negative base-10 logarithm of the molar concentration.

RLLLNRFTM = 7.48

// next entry
Using the record for `RVWIEDNPW` , report its pKd.
7.14

* * *

- target: HLA-B*15:01
- assay.details: IEDB peptide-MHC binding, purified MHC/direct/fluorescence; filed as Kd, often an IC50 or EC50 that approximates it; bounds were set here for any values at or beyond the usual limits of such assays
- condition.notes: source organism: Brucella melitensis
result.type: Kd
Provide a numeric answer, followed by its unit.

// lookup Kd | system=HLA-B*15:01 | key= `GYSFSIPGY`
548 nM

* * *

- target: HLA-A*68:02
- assay.details: IEDB peptide-MHC binding, purified MHC/direct/fluorescence; filed as Kd, often an IC50 or EC50 that approximates it; bounds were set here for any values at or beyond the usual limits of such assays
- condition.notes: source organism: Rickettsia prowazekii
pKd: −log10 of the molar value.
result.type: pKd

Using the record for `RRNRKALWL` , report its pKd.
≤ 4.70

* * *

- target: HLA-A*02:01
- assay.details: IEDB peptide-MHC binding, purified MHC/direct/fluorescence; filed as Kd, often an IC50 or EC50 that approximates it; bounds were set here for any values at or beyond the usual limits of such assays
- condition.notes: source organism: Coxiella burnetii Q321
pKd: −log10 of the molar value.
result.type: pKd

Using the record for `DGAEGINPY` , report its pKd.
≤ 4.70

* * *

- target: HLA-A*11:01
- assay.details: IEDB peptide-MHC binding, purified MHC/direct/fluorescence; filed as Kd, often an IC50 or EC50 that approximates it; bounds were set here for any values at or beyond the usual limits of such assays
- condition.notes: source organism: Salmonella enterica subsp. enterica serovar Typhi
result.type: Kd

Using the record for `LPLIVDTAA` , report its Kd.
≥ 20 µM

* * *

- target: HLA-A*02:06
- assay.details: IEDB peptide-MHC binding, purified MHC/competitive/fluorescence; filed as Kd, often an IC50 or EC50 that approximates it; bounds were set here for any values at or beyond the usual limits of such assays
- condition.notes: source organism: Brucella melitensis bv. 1 str. Rev.1
pKd: −log10 of the molar value.
result.type: pKd

// lookup pKd | system=HLA-A*02:06 | key= `FSDVSHWWQ`
≤ 4.70

* * *

- target: HLA-A*02:03
- assay.details: IEDB peptide-MHC binding, purified MHC/competitive/radioactivity; filed as Kd, often an IC50 or EC50 that approximates it; bounds were set here for any values at or beyond the usual limits of such assays
- condition.notes: source organism: Vaccinia virus WR
Below: a set of entries, each annotated with reported log10 of Kd.
Would you kindly interpret these values as log10 of Kd expressed in µM?

Using the record for `DMLLNVQTL` , report its log10 of Kd.
0.71

Using the record for `KIDKLTFQI` , report its log10 of Kd.
1.03

Using the record for `PASKKESVI` , report its log10 of Kd.
0.25

Using the record for `NTLIQYRQQL` , report its log10 of Kd.
1.00

Using the record for `QQFANVISKI` , report its log10 of Kd.
-2.77

Using the record for `IVSRSSRGV` , report its log10 of Kd.
1.12

Using the record for `HINDQKFDDV` , report its log10 of Kd.
0.06

Using the record for `YTISSESLV` , report its log10 of Kd.
-1.42

* * *

- target: HLA-A*11:01
- assay.details: IEDB peptide-MHC binding, purified MHC/direct/fluorescence; filed as Kd, often an IC50 or EC50 that approximates it; bounds were set here for any values at or beyond the usual limits of such assays
- condition.notes: source organism: Campylobacter jejuni
result.type: Kd
Provide a numeric answer, followed by its unit.

Using the record for `VSIRGSHHK` , report its Kd.
91 nM
